B1: TPR t1 (parent)
chain: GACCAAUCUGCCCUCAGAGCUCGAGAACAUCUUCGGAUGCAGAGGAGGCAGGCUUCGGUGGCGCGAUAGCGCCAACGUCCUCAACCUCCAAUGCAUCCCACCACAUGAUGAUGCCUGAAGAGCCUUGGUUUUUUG

variants of: B1; test: polymerase ribozyme fitness, log enrichment relative to wild type (log ratio); higher = more active; in vitro selection for triplet polymerase activity
Parameter: polymerase ribozyme fitness (log ratio). Scope: all listed entries.

# variant, polymerase ribozyme fitness (log ratio)
data = [
    ("G44C U55C", -1.02),
    ("C13U U126A", -1.64),
    ("C53G G61A U106G G110C C124U", -6.24),
    ("C40U G60A G120U", -0.0652),
    ("G47U G60A G117A", -3.41),
    ("U81A U112G", -0.661),
    ("U7A C89U", -0.565),
    ("U14G U21G C40A G48C U106A", -5.19),
    ("U33C C62U C99U C115U", -6.64),
    ("A50U C76A G77A", -1.53),
    ("C4G C12A C15A C73U C94A C99U G110C", -7.24),
    ("C11U A27U G71U C101G C104U A111C", -6.17),
    ("C4U G61C", -2.8),
    ("G48C C49G A84U C124U", -1.8),
    ("C73U C80U G135C", -0.322),
    ("C34A G69C", -4.71),
    ("C12U U54A A91C C115U", -0.811),
    ("A43U G63C G117C", -4.52),
    ("G42U G69A", -5.35),
    ("A27G C89A U92A C98A A111C", -6.08),
    ("A118U C123U", -0.82),
    ("A29C A41G", -2.15),
]
